# Test system: MCF-7 breast cancer cell line
# Assay type: cell-based, human
Residues, ends and D or L forms follow the SMILES beside them.
propertyName: IC50
Dear colleague, please send the value followed by its unit.

- CC[C@H](C)[C@H](NC(=O)[C@H](CCCCN)NC(=O)[C@H](CCCCN)NC(=O)[C@@H](NC(=O)[C@@H](NC(=O)[C@H](CC(=O)O)NC(=O)[C@H](Cc1ccccc1)NC(=O)[C@H](CC(C)C)NC(=O)CN)[C@@H](C)CC)[C@@H](C)CC)C(=O)N[C@@H](C)C(=O)N[C@@H](CCC(=O)O)C(=O)N[C@@H](CO)C(=O)N[C@@H](Cc1ccccc1)C(N)=O [aurein 1.2] (H-GLFDIIKKIAESF-NH2): 25.9 µM
- CC[C@H](C)[C@H](NC(=O)[C@H](CCCCN)NC(=O)[C@H](CCCCN)NC(=O)[C@@H](NC(=O)[C@@H](NC(=O)[C@H](CCCCN)NC(=O)[C@H](CCCCN)NC(=O)[C@@H](NC(=O)[C@@H](NC(=O)[C@H](CC(=O)O)NC(=O)[C@H](Cc1ccccc1)NC(=O)[C@H](CC(C)C)NC(=O)CN)[C@@H](C)CC)[C@@H](C)CC)[C@@H](C)CC)[C@@H](C)CC)C(=O)N[C@@H](C)C(=O)N[C@@H](CCC(=O)O)C(=O)N[C@@H](CO)C(=O)N[C@@H](Cc1ccccc1)C(N)=O [IK-1] (H-GLFDIIKKIIKKIAESF-NH2): 3 µM
- CC[C@H](C)[C@H](NC(=O)[C@H](CCCCN)NC(=O)[C@H](CCCCN)NC(=O)[C@@H](NC(=O)[C@@H](NC(=O)[C@H](CCCCN)NC(=O)[C@H](CCCCN)NC(=O)[C@@H](NC(=O)[C@@H](NC(=O)[C@H](CCCCN)NC(=O)[C@H](CCCCN)NC(=O)[C@@H](NC(=O)[C@@H](NC(=O)[C@H](CC(=O)O)NC(=O)[C@H](Cc1ccccc1)NC(=O)[C@H](CC(C)C)NC(=O)CN)[C@@H](C)CC)[C@@H](C)CC)[C@@H](C)CC)[C@@H](C)CC)[C@@H](C)CC)[C@@H](C)CC)C(N)=O [IK-3] (H-GLFDIIKKIIKKIIKKI-NH2): 3.4 µM

Value of IC50 reported for the compound CC[C@H](C)[C@H](NC(=O)[C@H](CC(=O)O)NC(=O)[C@H](Cc1ccccc1)NC(=O)[C@H](CC(C)C)NC(=O)CN)C(=O)N[C@H](C(=O)N[C@@H](CCCCN)C(=O)N[C@@H](CCCCN)C(=O)N[C@@H](CC(C)C)C(=O)N[C@@H](C)C(=O)N[C@@H](CCCCN)C(=O)N[C@@H](CC(C)C)C(=O)N[C@@H](C)C(=O)N[C@@H](CCC(=O)O)C(=O)N[C@@H](CO)C(=O)N[C@@H](Cc1ccccc1)C(N)=O)[C@@H](C)CC [KLA-2] (H-GLFDIIKKLAKLAESF-NH2) is 3.55 µM

Value of IC50 reported for the compound CC[C@H](C)[C@H](NC(=O)[C@H](CC(=O)O)NC(=O)[C@H](Cc1ccccc1)NC(=O)[C@H](CC(C)C)NC(=O)CN)C(=O)N[C@H](C(=O)N[C@@H](CCCCN)C(=O)N[C@@H](CCCCN)C(=O)N[C@@H](CC(C)C)C(=O)N[C@@H](C)C(=O)N[C@@H](CCC(=O)O)C(=O)N[C@@H](CO)C(=O)N[C@@H](Cc1ccccc1)C(N)=O)[C@@H](C)CC [KLA-1] (H-GLFDIIKKLAESF-NH2) is 17.6 µM
